Please provide measured Inhibition of IL-2 production (%), Hy1B for the entries that follow.
- target: HLA-DR2 (DRB1*1501) on antigen presenting cells (MGAR, L466) (human); further: test concentration or dose not given here
- assay: cell-based or functional assay
Answers are plain numbers, in %.

>>> measured("EKEAAAAYAAAAAAA [synthetic peptide #46]")
0
>>> measured("AKAEYAAYAAAAAAA [synthetic peptide #59]")
29
>>> measured("AAEKYAAYKAAAAAA [synthetic peptide #77]")
61
>>> measured("EAEAYKAYKAAAAAA [synthetic peptide #96]")
43
>>> measured("EKEAYAAYKAAAAAA [synthetic peptide #92]")
42

Here are 8 binders. What values of Inhibition of IL-2 production (%), Hy1B were reported for them?
1. AAKEYAAYKAAAAAA [synthetic peptide #84]
2. EAKKYEAYKAAAAAA [synthetic peptide #102]
3. EKAEYAAYAAAAAAA [synthetic peptide #72]
4. EEAAYAYKKAAAAAA [synthetic peptide #112]
5. AKEEYAAYKAAAAAA [synthetic peptide #82]
6. AEKEYAAAAAAAAAA [synthetic peptide #40]
7. EKEAYAAYAAAAAAA [synthetic peptide #73]
8. AKEAYAAYKAAAAAA [synthetic peptide #78]

Reply:
1. 42
2. 57
3. 39
4. 32
5. 47
6. 22
7. 23
8. 59

Here are 2 binders. What values of Inhibition of IL-2 production (%), Hy1B were reported for them?
1. AAKKYEAYAAAAAAA [synthetic peptide #68]
2. EEKAYAYAKAAAAAA [synthetic peptide #106]

Reply:
[41, 39]
